- measured target: P99/AmpC of ECL (Enterobacter cloacae)
- Sequence (P05364 21-381): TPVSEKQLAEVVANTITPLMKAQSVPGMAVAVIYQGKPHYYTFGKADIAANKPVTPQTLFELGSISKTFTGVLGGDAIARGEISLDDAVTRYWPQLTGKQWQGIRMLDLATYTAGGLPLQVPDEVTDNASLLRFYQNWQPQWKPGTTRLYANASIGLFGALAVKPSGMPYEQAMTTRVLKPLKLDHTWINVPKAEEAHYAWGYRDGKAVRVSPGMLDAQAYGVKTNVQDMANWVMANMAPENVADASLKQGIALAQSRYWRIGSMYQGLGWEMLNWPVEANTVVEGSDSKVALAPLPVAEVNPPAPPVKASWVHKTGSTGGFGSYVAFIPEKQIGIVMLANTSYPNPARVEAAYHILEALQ
- assay method text: biochemical
- conditions: nitrocefin; read-out: Ki (P99/AmpC of ECL, NCF)
- Procedure: Purified enzymes were mixed with various concentrations of inhibitors in reaction buffer and incubated for 10 min at room temperature. Nitrocefin was added and substrate cleavage profiles were recorded at 490 nm every 10 sec for 10 min.
property measured: Ki

These recorded examples may help you get a feel for the data.
CSc1ccc2c(c1C(=O)O)OB(O)[C@@H](Sc1nncn1N)C2; 100 to 1000 nM
O=C(O)c1cccc2c1OB(O)[C@@H](OC1CNC1)C2; 100 to 1000 nM
CS[C@H]1Cc2cccc(C(=O)O)c2OB1O; < 100 nM
NC(=O)CCS[C@H]1Cc2cccc(C(=O)O)c2OB1O; < 100 nM
Nn1cnnc1S[C@H]1Cc2ccc(F)c(C(=O)O)c2OB1O; 100 to 1000 nM
Nc1nnc(S[C@H]2Cc3ccc(F)c(C(=O)O)c3OB2O)s1; < 100 nM

Ki for CC(=O)Nc1nnc(S[C@H]2Cc3cccc(C(=O)O)c3OB2O)s1 ?
< 100 nM

Next compound: Nn1cnnc1S[C@H]1Cc2cccc(C(=O)O)c2OB1O
< 100 nM

Next compound: NC(=O)CS[C@H]1Cc2cccc(C(=O)O)c2OB1O
< 100 nM

Next compound: Cn1cnnc1S[C@H]1Cc2ccc(F)c(C(=O)O)c2OB1O
100 to 1000 nM

The values you see were collected from patent US9132140B2.
